# TEST METHOD NOTES: binders of probe aFGF10 on microarray, primary screen, stem cell growth factor project, biochemical, small-molecule microarray, fluorescence 635/667 (AID 1071);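 further: score merges 667 nm spot intensity and signal to noise from triplicate slides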
# CONDITION DESCRIPTION: higher = more signal
Entries and their measured composite z-score follow.
MEASUREMENT TYPE: composite z-score

{"COMPOUND": "COCCOC(=O)N1C(=O)[C@@]2(c3cc(C#CCNC(N)=O)ccc31)[C@H](C(N)=O)[C@H]1C(=O)O[C@H](c3ccccc3)[C@H](c3ccccc3)N1[C@@H]2c1ccc(O)cc1", "READING": 0.29}
{"COMPOUND": "COC(=O)[C@@]1(Cc2ccc(F)cc2)[C@@H]2C(=CC(=O)[C@H]2CC(=O)C(=O)N2CCCC2)CN1C(=O)c1ccccc1", "READING": 0.866}
{"COMPOUND": "CC(C)C[C@@H]1NC(=O)[C@@H]2C[C@H](C(=O)NCCCCCNC(=O)CS)[C@H](c3ccc(O)cc3)N2C1=O", "READING": -0.435}
{"COMPOUND": "CC1CC/C=C\\[C@H]2OC34C=CCN(C(C)C)C(=O)[C@H]3N(C(C)CO)C(=O)[C@@H]4C2C(=O)O1 (some centres not stated)", "READING": -0.19}
{"COMPOUND": "O=C(NC1CC1)[C@@H]1c2ccccc2C(=O)N(C2CCCCC2)[C@H]1c1ccc(CO)cc1", "READING": -0.142}
{"COMPOUND": "COC(=O)[C@@]1(Cc2ccc(F)cc2)[C@H]2c3cc(C(=O)N4CCCC4)n(CCSCCO)c3C[C@H]2CN1C(=O)c1ccccc1", "READING": 0.359}
{"COMPOUND": "O=C1OCC=C[C@H]2OC34C=CCN(Cn5nnc6ccccc65)C(=O)[C@H]3N(CCO)C(=O)[C@@H]4[C@@H]12 (some centres not stated)", "READING": -0.749}
{"COMPOUND": "CCCCCCc1nc(-c2ccc(OC)nc2)c(C)c2c1[Si](C(C)C)(C(C)C)OC2", "READING": -0.234}
{"COMPOUND": "CC(C)N1CC=CC23O[C@@H]4/C=C\\CCCOC(=O)C4[C@H]2C(=O)N(C(C)CO)[C@@H]3C1=O (some centres not stated)", "READING": -0.789}
{"COMPOUND": "O=C1C2C=CC(C(O)C3CCCCC3)N(Nc3ccccc3F)C2C(=O)N1c1ccccc1 (configuration not stated)", "READING": 0.682}
{"COMPOUND": "COC(=O)[C@H]1N=C(c2ccc(OCCCO)cc2)O[C@H]1c1ccccc1N=[N+]=[N-]", "READING": 0.48}
{"COMPOUND": "CCOC(=O)C1=C[C@@H](C(C)(C)C)N(S(=O)(=O)c2ccc(C)cc2)[C@H]1c1ccc(OC)cc1", "READING": 0.726}

###

# TEST METHOD NOTES: PSAC antagonists in infected red cells, primary screen, cell-based, P. falciparum Indochina, OD700, 18 h (AID 1157)
# CONDITION DESCRIPTION: P. falciparum Indochina infected erythrocytes, osmotic lysis OD700, 18 h; higher = more signal, called active from +8 up or from −8 down
MEASUREMENT TYPE: z-score

{"MOLECULE": "COC(=O)[C@@]1(Cc2ccc(F)cc2)[C@H]2c3cc(C(=O)N4CCCC4)n(Cc4ccc(C(F)(F)F)nc4)c3C[C@H]2CN1C(=O)c1ccccc1", "MEASUREMENT TYPE": "z-score", "READING": 0.716}
{"MOLECULE": "C=CCNC(=O)[C@H]1[C@@H]2C(=O)O[C@@H](c3ccccc3)[C@@H](c3ccccc3)N2[C@@H](c2ccc(OCCO)cc2)[C@]12C(=O)Nc1ccc(C#Cc3ccc(OC)cc3)cc12", "MEASUREMENT TYPE": "z-score", "READING": 1.4}
{"MOLECULE": "CC(C)C(=C=CC[C@H](O)c1cccc(OCCO)c1)C[C@H](O)c1ccccn1", "MEASUREMENT TYPE": "z-score", "READING": 0.626}
{"MOLECULE": "C[C@]12C(=O)N(CCO)[C@@H]3C(=O)N(c4ccc(Cl)cc4)CC=CC31O[C@@H]1/C=C\\CCCOC(=O)C12 (some centres undefined)", "MEASUREMENT TYPE": "z-score", "READING": 0.359}

Measured values drawn from PubChem BioAssay for this set.
